tested on: P12-Ichikawa; assay: cell viability relative to DMSO control; higher = less cytotoxic; details: HPLM + 10% dialyzed FBS; 48 h; 0.000781 µM
Exercise: for every item that follows, state its recorded cell viability.
Answers are plain numbers, in %.

Some entries whose results are on file:
[
  {
    "Smiles input": "COc1cc[nH]c2ncc(C(=O)C(=O)N3CCN(C(=O)c4ccccc4)C[C@H]3C)c1-2",
    "cell viability, %": 114
  },
  {
    "Smiles input": "CCOC(=O)\\C1=C\\[C@]2(CC)CCCN3CCC4=C([C@H]23)[N]1C5=C4C=CC=C5",
    "cell viability, %": 98.7
  },
  {
    "Smiles input": "O=P(O)(O)C(O)(Cn1ccnc1)P(=O)(O)O",
    "cell viability, %": 97.2
  },
  {
    "Smiles input": "COc1c(C)c2c(c(O)c1C/C=C(\\C)CCC(=O)O)C(=O)OC2",
    "cell viability, %": 108
  },
  {
    "Smiles input": "CN(C)CC(C)(C)CNc1nn2c(-c3ccccc3)nnc2cc1C1CCC1",
    "cell viability, %": 106
  }
]

Each of the following entries comes with a recorded value; kindly state cell viability for each.
1. Cc1coc2c1C(=O)C(=O)c1c-2ccc2c1CCCC2(C)C
2. COc1cc(C(=O)N2CC[C@@H](O)[C@@H](N)C2)cc2nc(-c3cc4ccccc4n3CC3CC3)n(C)c12
3. COC1=C(OCCCN2CCOCC2)C=CC\3=C1/N=C(/NC(=O)C4=CN=C(N)N=C4)N5CC/N=C35

Ans.
103
117
110
